Data origin, for the record: patent US20040162422A1

# TARGET DESC: human adenosine A1 receptors (Homo sapiens, UniProt P30542)
# Construct: expressed in transfected cells
# Sequence (P30542 whole entry): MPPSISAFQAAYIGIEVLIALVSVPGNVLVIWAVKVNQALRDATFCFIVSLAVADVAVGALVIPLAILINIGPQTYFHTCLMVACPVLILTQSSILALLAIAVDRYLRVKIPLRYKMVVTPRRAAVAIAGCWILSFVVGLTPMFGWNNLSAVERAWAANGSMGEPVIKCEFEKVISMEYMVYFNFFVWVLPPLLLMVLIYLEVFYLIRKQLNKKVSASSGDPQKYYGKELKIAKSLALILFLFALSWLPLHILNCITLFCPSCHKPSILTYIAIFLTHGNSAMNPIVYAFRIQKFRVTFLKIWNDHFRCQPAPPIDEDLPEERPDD
# METHOD SUMMARY: Reporter gene experiments in yeast (agonist activity, β-galactosidase/FDG readout)
# Format: cell-based
# Design: key: equipotent concentration ratio relative to NECA = 1
# CONDITIONS USED: ECR = equipotent concentration ratio relative to NECA = 1; agonist potency, yeast reporter gene assay
Bucketed by reported Adenosine A1 receptor ECR*, buckets being low (below 7), middle (7 to below 10), high (10 or more)

{"COMPOUND": "C#C[C@H]1O[C@@H](n2cnc3c(Nc4ccc(Cl)cc4C)ncnc32)[C@H](O)[C@@H]1O", "CLASSIFICATION": "middle"}
{"COMPOUND": "C#C[C@H]1O[C@@H](n2cnc3c(Nc4ccc(F)cc4Cl)ncnc32)[C@H](O)[C@@H]1O", "CLASSIFICATION": "low"}

(Q) // return the class label for C#C[C@H]1O[C@@H](n2cnc3c(N[C@H]4CCO[C@H]4C)ncnc32)[C@H](O)[C@@H]1O
(A) high

(Q) // return the class label for C#C[C@H]1O[C@@H](n2cnc3c(N[C@H]4CCC[C@@H]4O)ncnc32)[C@H](O)[C@@H]1O
(A) low
